Could you please report measured growth for the items listed next?
Test system: KM12 colon
PROTOCOL: NCI-60 one-dose screen, 48 h (100 = growth as untreated, 0 = no growth, -100 = all killed)
MEASUREMENT_PARAMETERS: 10 µM unless noted
About 83,000 compounds went through this panel and 20% of them were active in at least one assay; those are over-represented in the sample as a whole.
Lab book: enter the figure in %, no units written.

**Q:** Given the entry "Cn1c(=O)c2nc3c(=O)n(C)c(=O)n(C)c3nc2n(C)c1=O" , what growth was observed with KM12 colon?
**A:** 109

**Q:** Given the entry "CC(C)c1ccccc1NC(=O)N1CCC(C(C)C)CC1" , what growth was observed with KM12 colon?
**A:** 113

**Q:** Given the entry "ON1CCCC1" , what growth was observed with KM12 colon?
**A:** 110

**Q:** Given the entry "CC(=O)NCNC(C)=O" , what growth was observed with KM12 colon?
**A:** 117

**Q:** Given the entry "CC(C)(CC(=O)O)CC(=O)O" , what growth was observed with KM12 colon?
**A:** 100

**Q:** Given the entry "Clc1ccc(-c2noc(/C=C\c3ccccc3)n2)cc1" , what growth was observed with KM12 colon?
**A:** 100

**Q:** Given the entry NC(CSSCC(N)C(=O)O)C(=O)O (centres undefined) , what growth was observed with KM12 colon?
**A:** 8.65

**Q:** Given the entry "COc1cc(OC)c2cc(C(=O)c3ccc(C#N)cc3)c(=O)oc2c1" , what growth was observed with KM12 colon?
**A:** 97.5

**Q:** Given the entry "Cc1cc(=O)n(Nc2ccccc2)c(O)c1C#N" , what growth was observed with KM12 colon?
**A:** 92.9

**Q:** Given the entry "CC(=O)NNC(=S)/N=C\C(C(=O)c1ccccc1)=C(/O)c1ccccc1" , what growth was observed with KM12 colon?
**A:** 99.4

**Q:** Given the entry "Cc1ccc(C2CCCCC2)cc1Br" , what growth was observed with KM12 colon?
**A:** 94.3

**Q:** Given the entry COc1ccc(C2CCCCC2=O)cc1 (centres undefined) , what growth was observed with KM12 colon?
**A:** 112

**Q:** Given the entry "CN1CCN(C(=S)S)CC1" , what growth was observed with KM12 colon?
**A:** 107

**Q:** Given the entry "CC1(C)CC(=O)C=C(N)C1" , what growth was observed with KM12 colon?
**A:** 124

----------
Test system: HCT-116 colon
PROTOCOL: NCI-60 one-dose screen, 48 h (100 = growth as untreated, 0 = no growth, -100 = all killed)
MEASUREMENT_PARAMETERS: 10 µM unless noted
The panel holds about 83,000 compounds, 20% with a hit somewhere; the sample as a whole holds those more often.
Could you please report measured growth for the items listed next?
Lab book: enter the figure in %, no units written.

**Q:** Dear colleague, I am looking for the recorded growth of the following compound: CCC1CCC(C)NC1 (configuration not stated)
**A:** 98.8

**Q:** Dear colleague, I am looking for the recorded growth of the following compound: "O=C(Nc1ccccc1)c1ccco1"
**A:** 92.3

**Q:** Dear colleague, I am looking for the recorded growth of the following compound: "CCCCCCCCCCCCCCCCOc1ccccc1NC(=O)CC(C)=O"
**A:** 97.5

**Q:** Dear colleague, I am looking for the recorded growth of the following compound: CCC(C)c1c(N)n(S(=O)(=O)c2ccc(C)cc2)oc1=O (configuration not stated)
**A:** 102

**Q:** Dear colleague, I am looking for the recorded growth of the following compound: "C=CC(C)(C)n1cc(C2=C(O)C(=O)C(c3cn(C(C)(C)C=C)c4ccccc34)=C(O)C2=O)c2ccccc21"
**A:** 97.4

**Q:** Dear colleague, I am looking for the recorded growth of the following compound: "CC(=O)[C@@]1(O)CC[C@H]2[C@@H]3CC[C@@H]4CC(=O)CC[C@]4(C)[C@H]3[C@@H](O)C[C@@]21C"
**A:** 107

**Q:** Dear colleague, I am looking for the recorded growth of the following compound: "Clc1ccc(C(SCc2ccccc2)SCc2ccccc2)cc1"
**A:** 76.3

**Q:** Dear colleague, I am looking for the recorded growth of the following compound: Clc1cccc(Cl)c1C1CSc2ccccc2N=C1c1ccccc1 (configuration not stated)
**A:** 19.3

**Q:** Dear colleague, I am looking for the recorded growth of the following compound: CC(=O)NC(O)C(Cl)Cl (configuration not stated)
**A:** 114

**Q:** Dear colleague, I am looking for the recorded growth of the following compound: "CCOc1ccccc1NC(=O)CCl"
**A:** 75.8

**Q:** Dear colleague, I am looking for the recorded growth of the following compound: "N#C/C(=C\c1ccc(C#N)cc1)C(=O)c1ccccc1"
**A:** 97.8

**Q:** Dear colleague, I am looking for the recorded growth of the following compound: CSCCC(NC(=O)C(Cl)Cl)C(=O)O (configuration not stated)
**A:** 91.2

----------
Tested on: NCI-H23 lung
PROTOCOL: NCI-60 one-dose screen, 48 h
MEASUREMENT_PARAMETERS: 10 µM unless noted
This is part of a sample that, as a whole, favours compounds with a hit. Of some 83,000 tested, about 20% had one in any assay. Calls of active or inactive are those of the source. How the source made its calls: active means growth percent below 10; inactive means the rest.
The reply should name one outcome from T = active, F = inactive

**Q:** Dear colleague, could you share the recorded outcome for "Cc1ccc2nc(N)nnc2c1" when you have a moment?
**A:** F

**Q:** Dear colleague, could you share the recorded outcome for "CC(=O)c1cccc(N(C)S(=O)(=O)c2ccc(C)cc2)c1" when you have a moment?
**A:** F

**Q:** Dear colleague, could you share the recorded outcome for "O=S(=O)(O)c1ccc(O)c(C2CCCCC2)c1" when you have a moment?
**A:** F

**Q:** Dear colleague, could you share the recorded outcome for "Cc1nc(C)c(C(=O)O)cc1C(=O)O" when you have a moment?
**A:** F

**Q:** Dear colleague, could you share the recorded outcome for CC1CCC(C)(C)c2ccccc21 (configuration not stated) when you have a moment?
**A:** F

**Q:** Dear colleague, could you share the recorded outcome for CC1(c2ccccc2)CO1 (configuration not stated) when you have a moment?
**A:** F

**Q:** Dear colleague, could you share the recorded outcome for "BrCc1cccc(C[P+](c2ccccc2)(c2ccccc2)c2ccccc2)c1" when you have a moment?
**A:** F

**Q:** Dear colleague, could you share the recorded outcome for "S=c1nc2[nH]c3ccccc3c2n[nH]1" when you have a moment?
**A:** F

**Q:** Dear colleague, could you share the recorded outcome for "S=C(NCc1ccccc1)N1CCC(CCCC2CCN(C(=S)NCc3ccccc3)CC2)CC1" when you have a moment?
**A:** F

**Q:** Dear colleague, could you share the recorded outcome for "O=[N+]([O-])c1c(Cl)ncnc1Cl" when you have a moment?
**A:** F

**Q:** Dear colleague, could you share the recorded outcome for "Cc1ccc(C)c2c1CCC2=O" when you have a moment?
**A:** F

**Q:** Dear colleague, could you share the recorded outcome for "Oc1cccnc1CN1CCCC1" when you have a moment?
**A:** F

**Q:** Dear colleague, could you share the recorded outcome for "O=C(CC(CC(=O)c1ccccc1)c1ccccn1)c1ccccc1" when you have a moment?
**A:** F

**Q:** Dear colleague, could you share the recorded outcome for "O=C(c1ccccc1O)N1CCCC1" when you have a moment?
**A:** F

**Q:** Dear colleague, could you share the recorded outcome for "CCOC(=O)C(COS(C)(=O)=O)(COS(C)(=O)=O)C(=O)OCC" when you have a moment?
**A:** F

**Q:** Dear colleague, could you share the recorded outcome for CN(C)c1ccc(O)c2c1CC1CC3C(N(C)C)C(=O)C(C(N)=O)=C(O)C3(O)C(=O)C1=C2O (configuration not stated) when you have a moment?
**A:** F

**Q:** Dear colleague, could you share the recorded outcome for "CC(=O)CSc1ncnc2nc[nH]c12" when you have a moment?
**A:** F

**Q:** Dear colleague, could you share the recorded outcome for "CCCC(=O)c1cccs1" when you have a moment?
**A:** F

**Q:** Dear colleague, could you share the recorded outcome for "C=COC(=O)C(C)(C)C" when you have a moment?
**A:** F

**Q:** Dear colleague, could you share the recorded outcome for "N#Cc1ccc(OC(=O)Nc2cc(Cl)cc(Cl)c2)cc1" when you have a moment?
**A:** T

**Q:** Dear colleague, could you share the recorded outcome for "CC(=O)c1cc(O)ccc1O" when you have a moment?
**A:** F

**Q:** Dear colleague, could you share the recorded outcome for CC(O)C(F)(F)C(F)(F)C(F)(F)F (configuration not stated) when you have a moment?
**A:** F

**Q:** Dear colleague, could you share the recorded outcome for "Cc1c(Cl)cccc1NC(=S)NC(=O)c1ccccc1" when you have a moment?
**A:** F

**Q:** Dear colleague, could you share the recorded outcome for "CC(CCC#N)(CCC#N)C(=O)c1ccccc1" when you have a moment?
**A:** F

**Q:** Dear colleague, could you share the recorded outcome for "COC(=O)c1ccccc1C(=O)c1c(C)cc(C)cc1C" when you have a moment?
**A:** F

**Q:** Dear colleague, could you share the recorded outcome for "CCOC(=O)/C(C)=C\c1ccc(OC)c(OC)c1" when you have a moment?
**A:** F

**Q:** Dear colleague, could you share the recorded outcome for "CC(=O)Nc1ccc(/C=C2\SC(=S)N(/C=C(\C(C)=O)C(N)=O)C2=O)cc1" when you have a moment?
**A:** F
